- ASSAY_EXPLANATION: Inhibition of cGAS in human THP-1 cells […] incubated for 18 hrs by Lucia luciferase reporter based counter assay
OUTCOME_MEASURE: pIC50
Would you please state pIC50, meaning minus log10 of the concentration in mol/L, as a bare number?

Answered examples (5):
Req: Return pIC50 for the following molecule: C[C@H]1CN2CC[C@@H]1n1c(nc3ccccc31)O[C@H]1C[C@@H](C(=O)O)N(C1)c1nc(nc3c1oc1ccccc13)C(F)(F)CCCCC(F)(F)C2=O
Resp: 5.18

Req: Please list pIC50 recorded for the molecule Cc1cccc2c1nc1n2[C@@H]2CCN(C[C@H]2C)C(=O)CCCCCC(F)(F)c2nc(c3oc4ccccc4c3n2)N2C[C@H](C[C@H]2C(=O)O)O1
Resp: 5.22

Req: Assign pIC50 to the following record: C[C@H]1CN2CC[C@@H]1n1c(nc3cc(Cl)ccc31)O[C@H]1C[C@@H](C(=O)O)N(C1)c1nc(nc3c1oc1cc(Cl)ccc13)CCOCCCC2=O
Resp: 5.02

Req: Give pIC50 for the following molecule: C[C@@H]1CN2CC[C@H]1n1c(nc3ccccc31)O[C@H]1C[C@@H](C(=O)O)N(C1)c1nc(nc3c1oc1ccccc13)CCCCCOC2=O
Resp: 5.09

Req: Please indicate pIC50 recorded for C[C@H]1CN2CC[C@H]1n1c(nc3ccccc31)O[C@H]1C[C@@H](C(=O)O)N(C1)c1nc(nc3c1oc1ccccc13)C(F)(F)COCCCCC2=O
Resp: 4.85

Next:
Req: Report pIC50, nothing else, for this molecule: C[C@H]1CN2CC[C@@H]1n1c(nc3ccccc31)O[C@H]1C[C@@H](C(=O)O)N(C1)c1nc(nc3c1oc1ccccc13)CCCCCN(C)C2=O
Resp: 5.14
